study-system: Hypoxia-inducible factor 1-alpha (Homo sapiens) (UniProt Q16665)
Sequence (Q16665 whole entry, looked up): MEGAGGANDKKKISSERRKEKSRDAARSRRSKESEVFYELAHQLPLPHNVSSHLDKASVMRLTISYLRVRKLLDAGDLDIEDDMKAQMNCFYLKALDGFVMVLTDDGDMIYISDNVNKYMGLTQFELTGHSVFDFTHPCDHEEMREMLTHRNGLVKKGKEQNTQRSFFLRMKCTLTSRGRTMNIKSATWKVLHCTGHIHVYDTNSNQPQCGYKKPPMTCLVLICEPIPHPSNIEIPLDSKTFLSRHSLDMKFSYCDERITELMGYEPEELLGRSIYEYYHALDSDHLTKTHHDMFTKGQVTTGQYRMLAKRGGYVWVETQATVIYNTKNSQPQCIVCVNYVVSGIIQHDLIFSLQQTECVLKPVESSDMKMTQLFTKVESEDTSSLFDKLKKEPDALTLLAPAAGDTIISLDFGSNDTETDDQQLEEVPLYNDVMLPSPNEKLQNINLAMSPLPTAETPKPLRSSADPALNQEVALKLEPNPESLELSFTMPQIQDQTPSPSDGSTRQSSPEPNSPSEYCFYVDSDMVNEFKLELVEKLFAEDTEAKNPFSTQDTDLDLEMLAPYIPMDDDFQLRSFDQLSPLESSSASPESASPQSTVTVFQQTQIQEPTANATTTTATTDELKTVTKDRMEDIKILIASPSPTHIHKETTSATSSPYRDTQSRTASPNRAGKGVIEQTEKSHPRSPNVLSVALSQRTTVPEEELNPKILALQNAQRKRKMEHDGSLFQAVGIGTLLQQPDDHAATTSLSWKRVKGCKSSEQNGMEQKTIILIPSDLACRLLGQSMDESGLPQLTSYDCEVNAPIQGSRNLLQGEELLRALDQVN
method-summary: activators of HIF1alpha nuclear accumulation, confirmation, imaging, fluorescence, U2OS GFP-HIF1alpha (AID 434951)
details: U2OS GFP-HIF1alpha nuclear intensity, high-content imaging
Activity calls are given as the source filed them.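 How the source made its calls: active means a fitted half-maximal concentration EC50 for the rise in nuclear signal no higher than ten times the top dose tested; inconclusive means flat fit with activity between 30% and 70%, or unusable fit; inactive means EC50 beyond ten times the top dose.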
Your answer must be one of the following: yes (1) (active), no (0) (inactive)

Exercise: What classification did CC(Oc1ccc2c3c(c(=O)oc2c1)CCCC3)C(=O)NCC(O)c1ccccc1 (stereo not given) end up with in this test?
Solution: no (0)

Exercise: What classification did CCNc1nc(Cl)nc(NNC(=O)C(C)Oc2ccccc2)n1 (stereo not given) end up with in this test?
Solution: no (0)

Exercise: What classification did `CCCCCCN1C=CC=C/C1=C/C=C(C#N)C#N` end up with in this test?
Solution: no (0)

Exercise: What classification did `CC(C)NC(=O)NC(=O)CSc1nnc(-c2ccccc2F)n1N` end up with in this test?
Solution: no (0)

Exercise: What classification did `CCOC(=O)CNC(=O)CSc1nnc(Cn2cnc3ccccc32)n1C` end up with in this test?
Solution: no (0)

Exercise: What classification did `Cc1c(Cl)c([N+](=O)[O-])nn1CC(=O)NC12CC3CC(CC(C3)C1)C2` end up with in this test?
Solution: no (0)

Exercise: What classification did `CC(=O)Nc1ccc(NC(=O)CCC(=O)OCC(=O)c2ccc(F)cc2)cc1` end up with in this test?
Solution: no (0)

Exercise: What classification did `O=C(Nc1ccc(Cl)cc1)NN1CC(=O)N(c2cccc(C(F)(F)F)c2)CC1=O` end up with in this test?
Solution: no (0)

Exercise: What classification did `COc1cc2ncnc(NCc3cccs3)c2cc1OC` end up with in this test?
Solution: no (0)

Exercise: What classification did `CC1CCN(C(=O)CS(=O)(=O)Cc2ccccc2)CC1` end up with in this test?
Solution: no (0)

Exercise: What classification did `O=C(CCN1C(=O)S/C(=C\c2ccc(F)cc2)C1=O)Nc1ccc(C(=O)O)c(O)c1` end up with in this test?
Solution: no (0)

Exercise: What classification did `Oc1ccc(CN2CCC(Cc3ccccc3)CC2)c2cccnc12` end up with in this test?
Solution: yes (1)

Exercise: What classification did `CCOc1ccc(/C=C/C(=O)c2ccccc2)cc1OC` end up with in this test?
Solution: yes (1)

Exercise: What classification did `COc1ccc(/C=C(\C#N)c2nc3ccccc3[nH]2)cc1O` end up with in this test?
Solution: no (0)

Exercise: What classification did `O=S(=O)(/C=C/c1ccccc1)N1CCNCC1` end up with in this test?
Solution: no (0)

Exercise: What classification did `O=C(NC1=NCCS1)c1cccc(NC(=O)c2ccco2)c1` end up with in this test?
Solution: no (0)

Exercise: What classification did `Cc1cc(SCC(=O)N/N=C/c2ccccc2C(=O)O)c(C)cc1Br` end up with in this test?
Solution: no (0)

Exercise: What classification did `COc1ccc2c(c1)c(C(=O)CN1CCc3ccccc3C1)c(C)n2C` end up with in this test?
Solution: no (0)

Exercise: What classification did `COc1ccccc1OCC(=O)N/N=C/c1c(O)ccc2ccccc12` end up with in this test?
Solution: yes (1)

Exercise: What classification did CCOC(=O)C(=CNc1ccc(NC2=NCC(C)S2)cc1)C(=O)OCC (stereo not given) end up with in this test?
Solution: yes (1)

Exercise: What classification did `O=C(N/N=C/c1c(O)ccc2ccccc12)c1cccnc1` end up with in this test?
Solution: yes (1)

Exercise: What classification did `CCOC(=O)c1c(-c2ccccc2)oc2cc(CN(C)C)c(O)c(CN(C)C)c12` end up with in this test?
Solution: yes (1)

Exercise: What classification did `Cc1sc2cc3c(c(C(=O)c4ccccc4)[n+]2c1C)-c1cccc2cccc-3c12` end up with in this test?
Solution: no (0)

Exercise: What classification did `Oc1c(CN2CCN(c3ccccc3)CC2)cc(Br)c2cccnc12` end up with in this test?
Solution: yes (1)

Exercise: What classification did `CCn1c(C)nc2cc(C(=O)N/N=C/c3cccc(O)c3O)ccc21` end up with in this test?
Solution: yes (1)

Exercise: What classification did `O=C(NNC(=S)Nc1ccc(Cl)c(Cl)c1)c1ccccn1` end up with in this test?
Solution: yes (1)

Exercise: What classification did `CCN(CC)c1ccc(/C=N/NC(=O)c2cccc(S(=O)(=O)Nc3ccccc3OC)c2)c(O)c1` end up with in this test?
Solution: yes (1)

Exercise: What classification did CCOc1ccc(N2C(=O)CC(Sc3nc(C)cc(C)n3)C2=O)cc1 (stereo not given) end up with in this test?
Solution: no (0)

Exercise: What classification did `COc1ccc(/C=N/NC(=S)Nc2cc(S(=O)(=O)N3CCOCC3)ccc2N2CCOCC2)cc1O` end up with in this test?
Solution: no (0)

Exercise: What classification did CCCC(=O)NC(c1ccc(Cl)cc1)c1ccc2cccnc2c1O (stereo not given) end up with in this test?
Solution: yes (1)

Exercise: What classification did `CCN(CC)CCNC1=CC(=O)OC12CCCCC2` end up with in this test?
Solution: no (0)

Exercise: What classification did CC(=O)c1ccc(N(C(=O)c2csnn2)C(C(=O)NC(C)(C)C)c2cccs2)cc1 (stereo not given) end up with in this test?
Solution: no (0)

Exercise: What classification did O=C(c1cccc(C(F)(F)F)c1)C1CCCN(C(=O)Cn2cncn2)C1 (stereo not given) end up with in this test?
Solution: no (0)

Exercise: What classification did `CCN(CC)c1ccc(/C=N/Nc2nc3ccccc3[nH]2)c(O)c1` end up with in this test?
Solution: yes (1)

Exercise: What classification did Cc1ccc(S(=O)(=O)N2CC(C)N(C(=O)N3CCOCC3)C2C)cc1 (stereo not given) end up with in this test?
Solution: no (0)

Exercise: What classification did `NC(=S)NNC(=O)c1cc(C(F)(F)F)cc(C(F)(F)F)c1` end up with in this test?
Solution: no (0)

Exercise: What classification did `Cc1ccc(S(=O)(=O)/N=C2/NC(=O)/C(=C/c3cc([N+](=O)[O-])ccc3O)S2)cc1` end up with in this test?
Solution: no (0)

Exercise: What classification did `COC(=O)Nc1ccc(S(=O)(=O)N(C)C)cc1` end up with in this test?
Solution: no (0)

Exercise: What classification did `CCn1nc(C(=O)OCC(=O)NC(C)C)c2ccccc2c1=O` end up with in this test?
Solution: no (0)

Exercise: What classification did `CCOc1cccc(/C=N/Nc2ccc(S(=O)(=O)N(CC)CC)cn2)c1O` end up with in this test?
Solution: yes (1)

Exercise: What classification did `C1CCC2(CC1)C1=C(CCCC1)Nc1nnnn12` end up with in this test?
Solution: no (0)

Exercise: What classification did `CCN(CC)CCNc1cc(C)nc2c1C(=O)C(=O)C=C2N1CCCCC1` end up with in this test?
Solution: yes (1)

Exercise: What classification did `COCCNC(=O)c1cc(-c2cccs2)on1` end up with in this test?
Solution: yes (1)

Exercise: What classification did `ONC=Nc1cccc2nonc12` end up with in this test?
Solution: no (0)

Exercise: What classification did `COc1cc(C(=O)Oc2ccccc2/C=N/NC(=O)c2ccc(C)cc2)cc(OC)c1OC` end up with in this test?
Solution: yes (1)
